tested on: PCSK9 gene; assay: PCSK9 gRNA/SpCas9 editing in primary cynomolgus hepatocytes (Tables 2, 22); format: cell-based, cynomolgus monkey; settings: 100 ng/RNA/mL; SpCas9 mRNA MS002 1:1 by weight
In the oligonucleotide strings, read from the 5' end, every base follows the letter of its sugar. An asterisk marks phosphorothioate; unmarked linkages are phosphodiester. Other units and linkages are bracketed, terminal groups are in braces. A string of capitals states the bases alone. m = 2'-O-methyl; r = 2'-OH (RNA)
Property label: Cyno Primary Hepatocyte Editing % 100 (%)
# value in %; strip the unit string

Below are worked cases with known answers.
{"Molecule": "GA161: PCSK9 gRNA; protospacer GGACGAGGACGGCGACTACG (SEQ ID NO: 155) (nucleic acid) guide: mG*mG*mA*rCrGrArGrGrArCrGrGrCrGrArCrUrArCrGrGrUrUrUrUrArGrArGrCrUrArGrArArArUrArGrCrArArGrUrUrArArArArUrArArGrGrCrUrArGrUrCrCrGrUrUrArUrCrArArCrUrUrGrArArArArArGrUrGrGrCrArCrCrGrArGrUrCrGrGrUrGrCrU*mU*mU*mU", "Unit name": "%", "Reported measurement": 4.52}
{"Molecule": "GA182: PCSK9 gRNA; protospacer CACCTACGTGGTGGTGCTGA (SEQ ID NO: 176) (nucleic acid) guide: mC*mA*mC*rCrUrArCrGrUrGrGrUrGrGrUrGrCrUrGrArGrUrUrUrUrArGrArGrCrUrArGrArArArUrArGrCrArArGrUrUrArArArArUrArArGrGrCrUrArGrUrCrCrGrUrUrArUrCrArArCrUrUrGrArArArArArGrUrGrGrCrArCrCrGrArGrUrCrGrGrUrGrCrU*mU*mU*mU", "Unit name": "%", "Reported measurement": 1.55}

Okay, now this molecule:
Request: I would be grateful if you could share the reported Cyno Primary Hepatocyte Editing % 100 for GA172: PCSK9 gRNA; protospacer CAGTGCGCTCTGACTGCGAG (SEQ ID NO: 166) (nucleic acid, sugars from the 5' end m3 r94 m3, linkages s3 o93 s3 (s phosphorothioate, o phosphodiester), T or U not given here) guide: CAGUGCGCUCUGACUGCGAGGUUUUAGAGCUAGAAAUAGCAAGUUAAAAUAAGGCUAGUCCGUUAUCAACUUGAAAAAGUGGCACCGAGUCGGUGCUUUU .
Result: 0.51
